# Tested on: CAKI-1 renal
# test.method.notes: NCI tumour cell line growth inhibition, 48 h
measurement.type: TGI

Inquiry: Query: TGI; subject: COC(=O)C1CC(=O)O[C@H]1c1ccc(OC)c(OC)c1 (some centres undefined)
Reply text: > 100 µM

Inquiry: Param item = COc1cc(/C=C/C(=O)c2nc3cc(F)ccc3nc2C)cc(OC)c1OC ; retrieve measured TGI.
Reply text: > 100 µM

Inquiry: Tell me the measured TGI of CN(C)[C@@H]1C(=O)C(C(=O)NCc2nc3[nH]cnc(=S)c3[nH]2)=C(O)[C@@]2(O)C(=O)C3=C(O)c4c(O)cccc4[C@@](C)(O)[C@H]3C[C@@H]12 , please.
Reply text: > 100 µM

Inquiry: Please give the measured TGI for this molecule: CCOc1ccc(OP2(=O)NC(=O)C=C(C)N2)cc1 (centres undefined)
Reply text: > 100 µM

Inquiry: Item Cc1ccc(-c2nc([P+](c3ccccc3)(c3ccccc3)c3ccccc3)c(N3CCOCC3)o2)cc1 has what recorded TGI?
Reply text: 17.1 µM

Inquiry: TGI lookup needed for COc1cc(CCN)c(OC)c(OC)c1 , thanks.
Reply text: > 100 µM

Inquiry: What does the record list as TGI for Fc1ccc2c(c1)SC1=Nc3sc4cc(F)ccc4[n+]3CN12 ?
Reply text: 39.3 µM

Inquiry: # lookup: TGI of COc1ccc(OC/C(N)=N/NC(=O)c2ccncc2)cc1
Reply text: > 100 µM

Inquiry: So what does the record say about TGI for CC1=C(C(=O)Nc2ccc3[nH]ncc3c2)C(c2ccc(F)cc2)N=C(c2ccc(C(F)(F)F)nc2)N1 (centres undefined) ?
Reply text: > 25 µM

Inquiry: Look up TGI: O=S(=O)(O)C(c1ccccc1)C(O)c1ccccc1 (centres undefined)
Reply text: > 100 µM

Inquiry: Need TGI of NS(=O)(=O)c1c(O)c2ccccc2oc1=O , thanks.
Reply text: > 100 µM

Inquiry: Given COC(=O)N/N=C(\C)c1sc(-c2nc(C)c(/C(C)=N/NC(=O)OC)s2)nc1C , state its recorded TGI.
Reply text: > 100 µM

Inquiry: Name the reported TGI value associated with the molecule Cc1cc2nnn(C3CCCCO3)c2cc1C (centres undefined)
Reply text: > 100 µM

Inquiry: Entry COc1cc2c3c(n(CCCN)c(=O)c2cc1OC)-c1ccc(N)cc1C3=O : reported TGI = ?
Reply text: > 82.3 µM
